# Test system: MDR1
# procedureSummary: MDCK-MDR1 permeability assay (BBB penetration potential)
# Type: in vitro ADME
# conditionInfo: dog, MDCK-MDR1, pH 7.4, MDCK-MDR1: Papp A-B
parameterMeasured: Papp A→B at 120 min, 5 μM

Examples with answers:
>>> value("Oc1cc2nccnc2cc1-c1ccc(O[C@@H]2C[C@H]3CCC[C@H](N3)[C@@H]2F)nn1 (single isomer, unassigned)")
"7.17 ×10⁻⁶ cm/s"
>>> value("Cc1cc(-c2ccc(-c3ccc(O[C@H]4C[C@@H]5CCC[C@@H](N5)[C@H]4F)nn3)c(O)c2)cs1 (single isomer, unassigned)")
"0.92 ×10⁻⁶ cm/s"
>>> value("Oc1cc(-n2ccc(F)n2)ccc1-c1ccc(O[C@@H]2C[C@H]3CCC[C@H](N3)[C@@H]2F)nn1 (single isomer, unassigned)")
"7.15 ×10⁻⁶ cm/s"
>>> value("Oc1cc(-c2cn[nH]c2)ccc1-c1ccc(O[C@H]2C[C@@H]3CCC[C@@H](N3)[C@@H]2F)nn1 (single isomer, unassigned)")
"4.33 ×10⁻⁶ cm/s"
>>> value("Cn1ccc2cc(-c3ccc(O[C@@H]4C[C@H]5CC[C@H](N5)[C@@H]4F)nn3)c(O)cc2c1=O (single isomer, unassigned)")
"3.51 ×10⁻⁶ cm/s"

Ask: Please give the measured Papp A→B at 120 min, 5 μM for this compound: Cc1ccc(-c2ccc(-c3ccc(O[C@H]4C[C@@H]5CCC[C@@H](N5)[C@H]4F)nn3)c(O)c2)s1 (single isomer, unassigned)
Result: 1.14 ×10⁻⁶ cm/s

Ask: Return reported Papp A→B at 120 min, 5 μM; argument: Cc1ncc(-c2ccc(-c3ccc(O[C@@H]4C[C@H]5CCC[C@H](N5)[C@@H]4F)nn3)c(O)c2)o1 (single isomer, unassigned)
Result: 8.72 ×10⁻⁶ cm/s

Ask: Tell me the measured Papp A→B at 120 min, 5 μM of Oc1cc(-n2ncc3ccccc32)ccc1-c1ccc(O[C@H]2C[C@@H]3CC[C@@H](N3)[C@H]2F)nn1 (single isomer, unassigned) , please.
Result: 3.86 ×10⁻⁶ cm/s

Ask: # query: Papp A→B at 120 min, 5 μM of entry Oc1cc(-c2ccn3ccnc3c2)ccc1-c1ccc(O[C@@H]2C[C@H]3CCC[C@H](N3)[C@@H]2F)nn1 (single isomer, unassigned)
Result: 1.05 ×10⁻⁶ cm/s

Ask: Give the measured Papp A→B at 120 min, 5 μM of CNC(=O)c1ccc2cc(-c3ccc(O[C@H]4C[C@]5(C)CCC[C@@](C)(N5)[C@H]4F)nn3)c(O)cc2n1 (single isomer, unassigned) .
Result: 2.56 ×10⁻⁶ cm/s

Ask: If you can, please state the reported Papp A→B at 120 min, 5 μM value of Cc1cc(-c2ccc(-c3ccc(O[C@@H]4C[C@H]5CCC[C@H](N5)[C@@H]4F)nn3)c(O)c2)ccn1 (single isomer, unassigned) .
Result: 7.03 ×10⁻⁶ cm/s

Ask: Need Papp A→B at 120 min, 5 μM of Oc1cc(-c2cn[nH]c2)ccc1-c1ccc(O[C@@H]2C[C@H]3CCC[C@H](N3)[C@H]2F)nn1 (single isomer, unassigned) , thanks.
Result: 4.96 ×10⁻⁶ cm/s
